Data origin, for the record: patent US20120264678A1

Test Name: In vitro cytotoxicity
pEC50: −log10 of the molar value.
Assay Metric: pEC50

q: Recorded pEC50 for C[C@@]12OC(=O)[C@]1([C@@H](O)[C@@H]1C=CCCC1)NC(=O)[C@@H]2CCCl [Salinosporamide A] , please?
a: 6.70 to 8.00
